# procedure summary: Solubility of the compound in methanol
# Assay type: physicochemical
quantity name: solubility

smiles: O=C(Cc1ccc(Cl)cc1)N/N=C/c1c[nH]c2ccccc12
quantity name: solubility
experimental result: Soluble

smiles: CC(=O)Nc1ccc(/N=C/c2ccco2)cc1
quantity name: solubility
experimental result: Soluble

smiles: O=C(Nc1ccc(-c2cn3ccccc3n2)cc1)c1ccccc1[N+](=O)[O-]
quantity name: solubility
experimental result: Soluble

smiles: O=C(N/N=C/c1ccc(O)cc1O)c1cccnc1
quantity name: solubility
experimental result: Insoluble

smiles: O=[N+]([O-])c1cccc(CN2CCNCC2)c1
quantity name: solubility
experimental result: Soluble

smiles: O=C(Cc1ccc([N+](=O)[O-])cc1)N/N=C/c1ccc(O)cc1
quantity name: solubility
experimental result: Insoluble

smiles: O=C(O)CSc1ncnc2ccccc12
quantity name: solubility
experimental result: Insoluble

smiles: O=CNc1nonc1NNc1ccccc1
quantity name: solubility
experimental result: Soluble

smiles: C(=N\Nc1nc(-c2cccnc2)cs1)/c1cccnc1
quantity name: solubility
experimental result: Insoluble

smiles: O=C(NCCOc1ccccc1)C(=O)Nc1ccccc1
quantity name: solubility
experimental result: Insoluble

smiles: CC(=O)Oc1ccc(-c2cccc(C(=O)O)c2)cc1
quantity name: solubility
experimental result: Soluble

smiles: N=C(N/N=C\c1cccnc1)N/N=C\c1cccnc1
quantity name: solubility
experimental result: Soluble

smiles: NCC(O)(c1ccc(Cl)cc1)c1ccc(Cl)cc1
quantity name: solubility
experimental result: Soluble

---

# procedure summary: Solubility of the compound in ethanol
# Assay type: physicochemical

smiles: O=[N+]([O-])c1cccc(-c2noc(Cc3ccccc3)n2)c1
solubility: Insoluble
//
smiles: O=C(O)CCn1ncc2ccccc21
solubility: Soluble
//
smiles: O=C(O)c1cccc(NCN2C(=O)c3ccc([N+](=O)[O-])cc3C2=O)c1
solubility: Insoluble
//
smiles: O=C(O)c1ccc2c(c1)-c1nc3ccccc3n1C2=O
solubility: Insoluble
//
smiles: Cc1ccc(S(=O)(=O)NC(=O)NCc2ccco2)cc1
solubility: Insoluble
//
smiles: COc1ccc(-c2nn(CCC#N)c(=O)[nH]2)cc1
solubility: Soluble

---

# procedure summary: Lipophilicity, log P of the compound
# Format: physicochemical
# details: octanol/water; read-out: logP
quantity name: logP

smiles: O=C1C=C(Nc2ccccc2O)c2ccccc2C1=O
experimental result: 2.8

smiles: C=CCn1c(S)nc2sc3c(c2c1=O)CCN(C)C3
experimental result: 2.29

smiles: O=C(Oc1ccc(OC(=O)c2ccco2)cc1)c1ccco1
experimental result: 2.53

smiles: O=C(O)CSc1nc(O)c2ccccc2n1
experimental result: 1.34

smiles: Cc1cccc2c(CCN)c[nH]c12
experimental result: 1.9

smiles: O=C(N/N=C/c1ccc(O)cc1O)c1cccnc1
experimental result: 1.88

smiles: N=C1S/C(=C\c2ccccc2)C(=O)N1c1nonc1N
experimental result: 2.4

smiles: O=C1CN=C(Nc2nc3ccccc3o2)N1
experimental result: 0.62

smiles: O=C(O)/C=C\C(=O)Nc1ccc(OCC(=O)O)cc1
experimental result: 0.6

smiles: O=C(O)/C=C\C(=O)Nc1ccc(Nc2ccccc2)cc1
experimental result: 2.6

smiles: Nc1nonc1N/N=C/c1ccc(O)c(O)c1
experimental result: 3.18

smiles: N=C(N/N=C\c1cccnc1)N/N=C\c1cccnc1
experimental result: 7.05

smiles: NCc1ccccn1
experimental result: -0.11
